# assayProcedure: Confirmatory growth inhibition assay, Mycobacterium tuberculosis H37Rv, absence of glycerol (AID 449764);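 note: growth read after 7 days of incubation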
# runConditions: no glycerol; series mostly up to 100 µM
Hit rate of the full screen: of about 2,300 compounds, about 1,700 (74%) were called active. The set was probably picked from earlier hits. The list shows a part of the results. Measured potencies and affinities stand elsewhere.
measuredQuantity: outcome

The cases that follow already have their outcome on record.
compound: CCc1ccc(/C=C/C(=O)c2cc(Br)ccc(=O)c2O)cc1
measuredQuantity: outcome
result: inactive
//
compound: COc1ccc(N=Cc2ccc(CNS(=O)(=O)c3ccc(Cl)cc3)o2)cc1
measuredQuantity: outcome
result: inactive
//
compound: CCOc1ccc(-n2c(-c3ccc(Br)cc3)c[n+]3c2CCCCC3)cc1
measuredQuantity: outcome
result: inactive
//
compound: Cc1nc2cc(C(F)(F)F)ccc2n1C1CCN(Cc2nnnn2Cc2ccc3c(c2)OCO3)CC1
measuredQuantity: outcome
result: inactive
//
compound: CCOC(=O)c1ccc(NC(=O)CSc2ccc(-c3cccnc3)nn2)cc1
measuredQuantity: outcome
result: inactive

Given item CCCOc1ccc(C(=O)c2nc3c(n2O)CCCCC3)cc1 , the value recorded as its outcome is inactive

Given item Cc1ccc(S(=O)(=O)c2nc(Nc3nccs3)sc2Cl)cc1 , the value recorded as its outcome is inactive

Given item Nc1ccc(-c2nc3ccc(-c4nc5ccccc5o4)cc3[nH]2)cc1 , the value recorded as its outcome is inactive

Given item COc1ccc2c(C)nc(Nc3nc(C)c(C)c(=O)[nH]3)nc2c1 , the value recorded as its outcome is inactive

Given item O=C(O)C1CC=CCC1C(=O)NNc1ccccc1 (stereo unspecified) , the value recorded as its outcome is inactive

Given item CCc1ccc(-n2nc3cc(C)c(N)cc3n2)cc1 , the value recorded as its outcome is inactive
